system: LOX IMVI melanoma; test: NCI-60 one-dose screen, 48 h; conditions: 10 µM unless noted
About 83,000 compounds went through this panel and 20% of them were active in at least one assay; those are over-represented in the sample as a whole. Active and inactive are the calls of the source. Rule for the calls: active = growth percent below 10; inactive = the rest.
Outcomes: YES for active, NO for inactive

INSERT INTO measurements (molecule, assigned_category) VALUES
  ('CCCc1cc2cc(-n3nc(C)c4c3CC(C)(C)CC4=O)cc(NC3CCSCC3)c2c(=O)[nH]1', 'NO'),
  ('CC1(C(=O)O)CCC(N)(C(=O)O)C1(C)C (centres undefined)', 'NO'),
  ('CC(C)OC(=O)Nc1cc(F)c(F)cc1F', 'NO'),
  ('CCCCCn1sc(=O)n(Cc2ccc(CNC(=O)OCc3ccc4cccc(O)c4n3)cc2)c1=O', 'YES'),
  ('C=C(C)[C@@H]1CC[C@]2(C)[C@H](CC=C3[C@@H]4[C@@H](C)[C@H](C)CC[C@]4(C(N)=O)CC[C@]32C)[C@@]1(C)CCC#N', 'YES'),
  ('O=C(N/N=C/c1ccc([N+](=O)[O-])cc1)c1ccc(Br)o1', 'NO'),
  ('CC[C@]12C=CCN3CC[C@@]4(c5ccc(OC)cc5N(C)[C@H]4[C@@](O)(C(=O)OC)[C@@H]1OC(=O)CCC(=O)O[C@H]1CC[C@H]4[C@@H]5CCC6=CC(=O)CC[C@@H]6[C@H]5CC[C@]14C)[C@@H]32', 'YES'),
  ('CCOc1cccc2c(NC(C)CCCN(CC)CC)c(C)cnc12 (centres undefined)', 'NO'),
  ('COc1ncc(-c2ccc3nccc(C#CCCCCC(=O)NO)c3c2)cc1NS(=O)(=O)c1ccc(F)cc1F', 'YES');

----------
Listed below: growth values for each entry.
system: SK-OV-3 ovarian; assay: NCI-60 one-dose screen, 48 h (100 = growth as untreated, 0 = no growth, -100 = all killed); conditions: 10 µM unless noted
The panel holds about 83,000 compounds, 20% with a hit somewhere; the sample as a whole holds those more often. Activity calls are given as the source filed them. Rule for the calls: active = growth percent below 10; inactive = the rest.
readout_name: growth

INSERT INTO measurements (compound, experimental_result) VALUES
  ('CC(C)[C@H]1CCC2=C3CC[C@]45OC(=O)[C@@]6(CCC(C)(C)C[C@H]64)CC[C@@]5(C)[C@]3(C)CC[C@@]21C', '75.3% [100 µM] (inactive)'),
  ('O=C1/C(=C/c2cccc(OCc3ccccc3)c2)Oc2cc(OCCN3CCCCC3)ccc21', '121% (inactive)'),
  ('Cc1ccc(-c2cc(O)c(-c3ccc(C)cc3C)cc2O)c(C)c1', '82.7% (inactive)'),
  ('O=C1C(Cl)=C(Nc2ccc3cn[nH]c3c2)C(=O)c2ccccc21', '87.2% (inactive)'),
  ('C#CC(OC(=O)N(C)C)(c1ccccc1)c1ccc(F)cc1 (centres undefined)', '114% (inactive)'),
  ('Cc1ccc(S(=O)(=O)N/N=C2\CC3CCC2(C)C3(C)C)cc1 (centres undefined)', '114% (inactive)'),
  ('O=C(Nc1cccc(C2=NCCN2)c1)c1cccc(C(=O)Nc2cccc(C3=NCCN3)c2)c1', '104% (inactive)'),
  ('COCc1nc2ccccc2[nH]1', '101% (inactive)'),
  ('Cc1ccc(NC(=S)/N=c2/n(-c3ccccc3)nc3n2CCN3C2=NCCN2)cc1', '114% (inactive)'),
  ('O=C(COc1cccc(/C=C2\Oc3ccccc3C2=O)c1)c1ccc([N+](=O)[O-])cc1', '121% (inactive)'),
  ('CCOC(=O)c1cc(C#N)n2ncc3ccccc3c12', '107% (inactive)'),
  ('Cc1ccc(Cn2c(O)c(N=NC(=O)c3ccc(S(N)(=O)=O)cc3)c3ccccc32)cc1', '109% (inactive)'),
  ('Nn1c(Nc2ccc(S(=O)(=O)Nc3ncccn3)cc2)nnc(/C=C/c2c(O)ccc3ccccc23)c1=O', '84.2% (inactive)'),
  ('C=C(C)[C@@H]1CC[C@]2(C(=O)NCCNCCNCCN)CC[C@]3(C)[C@H](CC[C@@H]4[C@@]5(C)CC[C@H](O)C(C)(C)[C@@H]5CC[C@]43C)[C@@H]12', '-14.2% [100 µM] (active)'),
  ('Nc1nc(N)c2c(n1)NC(c1ccc(F)cc1)C1CCc3ccccc3C1=N2 (centres undefined)', '63.9% (inactive)'),
  ('O=C1CC(c2ccccc2)Cc2nc3ccc(Br)cc3cc21 (centres undefined)', '47.6% (inactive)'),
  ('CCN(CC)CCCNCc1cc(-c2ccccc2)nc2ccccc12', '92.4% (inactive)'),
  ('C[C@H]1[C@H](C)CC[C@]2(C(=O)O)CC[C@]3(C)C(=CC[C@@H]4[C@@]5(C)C/C(=C/c6cccnc6)[C@H](O)C(C)(C)[C@@H]5CC[C@]43C)[C@H]12', '5.9% [100 µM] (active)'),
  ('O=C1COCCN1c1ccc(NCc2cn(Cc3cccc4ccccc34)c3ccccc23)cc1', '62% (inactive)');
